# tested_target: T1, HLA-A*6802 (human, UniProt P30375 25-308 (Gorilla gorilla entry), limits assumed)
# T1 construct: purified HLA molecule; b2m and chain limits not described
# T1 MHC heavy: not shown
# test: competitive binding assay, purified HLA
readout_name: IC50 (nM)
Just the number in nM, nothing appended.

INPUT: Dear colleague, I am looking for the recorded IC50 of the following binder: VVLGVVFGI (native HER2/neu peptide) [Her2/neu.665]
OUTPUT: 2000
